Origin of measurements: patent US10760052B2

[35S]GTPγS binding, FLNA-Binding Compound as Agonist at 1 μM listing for selected compounds.
target: mu opiate receptor (MOR) (Rattus norvegicus, UniProt P33535); construct: from tissue; host or cells: striatum (membrane preparation); format: biochemical; conditions: 1 μM compound; striatal membranes; Series C-2
Sequence (P33535 whole entry): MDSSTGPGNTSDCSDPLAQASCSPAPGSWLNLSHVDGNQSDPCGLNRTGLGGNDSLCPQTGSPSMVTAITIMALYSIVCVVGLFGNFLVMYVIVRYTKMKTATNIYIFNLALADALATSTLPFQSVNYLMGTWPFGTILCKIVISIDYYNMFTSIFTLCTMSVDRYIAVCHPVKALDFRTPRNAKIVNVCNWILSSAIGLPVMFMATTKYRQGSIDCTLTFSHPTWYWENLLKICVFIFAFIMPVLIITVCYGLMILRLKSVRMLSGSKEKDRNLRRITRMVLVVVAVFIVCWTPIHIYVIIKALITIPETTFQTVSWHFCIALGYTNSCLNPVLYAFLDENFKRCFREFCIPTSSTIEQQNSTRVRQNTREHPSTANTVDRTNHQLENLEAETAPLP
Measurement Type: [35S]GTPγS binding, FLNA-Binding Compound as Agonist at 1 μM (%)

1. CCOC(=O)CN1CCC2(CC1)OCCN2S(=O)(=O)c1ccc(C(C)=O)cc1 [Compound C0099M]: 195.7
2. CN1CCC2(CC1)OCCN2S(=O)(=O)c1ccc(S(C)(=O)=O)cc1 [Compound C0106M]: 240.7
3. O=[N+]([O-])c1ccc(S(=O)(=O)N2CCC3(CC2)NCCCO3)cc1: 238.8
4. CCCCN1CCC2(CC1)OCCN2S(=O)(=O)c1ccc(C(C)=O)cc1 [Compound C0101M]: 274.3
5. CC(=O)c1ccc(S(=O)(=O)N2CCOC23CCN(C)CC3)cc1 [Compound C0093M]: 211.8
6. O=C1CN(C2CCc3ccccc3C2)C2(CCN(S(=O)(=O)c3ccccc3)CC2)N1 (centres unmarked) [C0136M(P5)]: 237.3
7. COc1ccc(S(=O)(=O)N2CCOC23CCNCC3)cc1: 313.9
8. COc1ccc(S(=O)(=O)N2CCOC23CCN(C(=O)OC(C)(C)C)CC3)cc1: 242.6
9. O=S(=O)(c1ccccc1Oc1ccccc1)N1CCC2(CC1)NCCO2 [Compound C0149M-2]: 406.7
10. O=[N+]([O-])c1ccc(S(=O)(=O)N2CCC3(CC2)NCCS3)cc1: 280.1
11. CN1CCC2(CC1)NC(=O)CN2Cc1ccccc1 [Compound C0104M]: 238.9
12. CC(=O)c1ccc(S(=O)(=O)N2CC(CN(C)C)OC23CCN(CC2CC2)CC3)cc1 (centres unmarked) [Compound C0128M]: 286.0
13. CCCCN1CCC2(CC1)OCCN2S(=O)(=O)c1ccc(OC)cc1 [Compound C0102M]: 272.0
14. COc1ccc(S(=O)(=O)N2CCOC23CCN(C(C)C)CC3)cc1 [Compound C0133M]: 214.8
15. CC(=O)c1ccc(S(=O)(=O)N2CCC3(CC2)OCCN3S(C)(=O)=O)cc1: 193.4
16. O=C1CN(Cc2ccccc2)C2(CCN(CC3CC3)CC2)N1 [Compound C0125M]: 195.2
17. COc1ccc(NC(=O)N2CCC3(CC2)NCCO3)cc1 [Compound C0151M-2]: 397.6
18. C=CCN1CCC2(CC1)OCCN2S(=O)(=O)c1ccc(C(C)=O)cc1 [Compound C0096M]: 328.9
19. COc1ccc(S(=O)(=O)N2CCOC23CCN(C)CC3)cc1 [Compound C0088M]: 355.3
20. O=[N+]([O-])c1ccc(S(=O)(=O)N2CCC3(CC2)NCCO3)cc1: 308.3
21. CCN1CCC2(CC1)OCCN2S(=O)(=O)c1ccc(OC)cc1 [Compound C0089M]: 295.3
22. O=S(=O)(c1cccc2cccnc12)N1CCC2(CC1)OCCN2S(=O)(=O)c1cccc2cccnc12 [Compound C0143M]: 193.3
23. CN1CCC2(CC1)NCC(=O)N2Cc1ccccc1 [Compound C0105M]: 220.3
24. COc1ccc(S(=O)(=O)N2CCC3(NCCO3)C3CCCCC32)cc1 (centres unmarked) [Compound C0144M-2]: 295.9
25. C=CCN1CCC2(CC1)OCCN2S(=O)(=O)c1ccc(OC)cc1 [Compound C0091M]: 274.4
26. O=C1CN(Cc2ccccc2)C2(CCN(C3CCCCC3)CC2)N1 [C0137M (P7)]: 193.8
27. COc1ccc(S(=O)(=O)N2CCOC23CCCNC3)cc1 (centres unmarked) [Compound C0145M-3]: 289.2
28. COc1ccc(S(=O)(=O)N2CCC3(CC2)NCCO3)cc1: 288.4
29. CS(=O)(=O)c1ccc(S(=O)(=O)N2CCOC23CCN(CC2CC2)CC3)cc1 [Compound C0126M]: 265.3
30. CC(=O)c1ccc(S(=O)(=O)N2CCC3(CC2)NCCS3)cc1: 218.9
31. CC(=O)c1ccc(S(=O)(=O)N2CCOC23CCN(CC(=O)O)CC3)cc1 [Compound C0100M]: 245.9
32. CC(=O)N1CCSC12CCN(S(=O)(=O)c1ccc([N+](=O)[O-])cc1)CC2: 127.6
33. CCN1CCC2(CC1)OCCN2S(=O)(=O)c1ccc(C(C)=O)cc1 [Compound C0094M]: 263.5
34. COc1ccc(S(=O)(=O)N2CCSC23CCNCC3)cc1: 286.8
35. CC(=O)c1ccc(S(=O)(=O)N2CC(CN(C)C)OC23CCN(C)CC3)cc1 (centres unmarked) [Compound C0108M]: 258.5
